# protocolDetails: Dose toxicity and toxicokinetics study in rats
# Type: in vivo
# experimentalSetup: female, rat, in vivo, po, Regimen 1 (Days 1-7 and 29-35), oral gavage; read-out: NOAEL (females)
recordedEndpoint: NOAEL (mg/kg)

>>> df
                                   compound  readoutunits  testvalue
0  O=C1CC[C@H](N2Cc3cc(C(=O)N[C@H](c4ncccc4Cl)C(F)(F)F)ccc3C2=O)C(=O)N1 [Compound 1]         mg/kg        0.3

* * *

# protocolDetails: Dose toxicity and toxicokinetics study in rats
# Format: in vivo
# experimentalSetup: both sexes, rat, in vivo, po; 0.3 mg/kg, Regimen 1, sexes combined
recordedEndpoint: Cmax

>>> df
                                   compound  testvalue
0  O=C1CC[C@H](N2Cc3cc(C(=O)N[C@H](c4ncccc4Cl)C(F)(F)F)ccc3C2=O)C(=O)N1 [Compound 1]  225 ng/mL

* * *

# System: CYP3A4/5
# protocolDetails: CYP inhibition in human liver microsomes, CYP3A4/5
# Format: in vitro ADME
# experimentalSetup: human, liver microsomes; CYP3A4/5, at 30 μM, 30-minute preincubation with NADPH; read-out: time-dependent inhibition
recordedEndpoint: inhibition at 30 min, 30 µM

In [3]: df
Out[3]:
                                   compound             recordedendpoint  testvalue
0  O=C1CC[C@H](N2Cc3cc(C(=O)N[C@H](c4ncccc4Cl)C(F)(F)F)ccc3C2=O)C(=O)N1 [Compound 1]  inhibition at 30 min, 30 µM      < 20%

* * *

Sequence of the target: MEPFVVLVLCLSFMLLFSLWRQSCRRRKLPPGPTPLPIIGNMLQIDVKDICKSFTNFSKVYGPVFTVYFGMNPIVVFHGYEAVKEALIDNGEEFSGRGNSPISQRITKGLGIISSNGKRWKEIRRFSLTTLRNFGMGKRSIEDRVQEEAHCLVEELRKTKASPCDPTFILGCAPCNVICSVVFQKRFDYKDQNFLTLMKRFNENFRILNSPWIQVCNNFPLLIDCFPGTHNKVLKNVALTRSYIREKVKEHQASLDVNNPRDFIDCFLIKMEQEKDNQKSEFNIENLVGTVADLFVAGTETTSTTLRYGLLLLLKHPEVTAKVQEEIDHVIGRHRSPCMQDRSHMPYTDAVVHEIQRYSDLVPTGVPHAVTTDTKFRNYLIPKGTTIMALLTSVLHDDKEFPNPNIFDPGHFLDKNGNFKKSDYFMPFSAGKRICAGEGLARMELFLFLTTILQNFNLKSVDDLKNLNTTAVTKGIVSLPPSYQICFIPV
recordedEndpoint: IC50

                            structurestring  testvalue
0  O=C1CC[C@H](N2Cc3cc(C(=O)N[C@H](c4ncccc4Cl)C(F)(F)F)ccc3C2=O)C(=O)N1    > 30 µM

* * *

# protocolDetails: GLP repeat-dose toxicity and toxicokinetics study in monkeys
# Format: in vivo, cynomolgus monkeys
# experimentalSetup: both sexes, cynomolgus monkey, plasma, po; 0.1 mg/kg, Regimen 2, sexes combined
# Description: Cardiovascular assessments (electrocardiograms [ECGs] and heart rates) were conducted in conscious cynomolgus monkeys as part of the Good Laboratory Practice (GLP)-compliant repeat dose toxicity study. […] Qualitative (visual inspection) and quantitative assessments including heart rates and PR, QRS, RR, QT, and QTc intervals were performed. QTc was calculated using Bazett's formula. […]
recordedEndpoint: Cmax (ng/mL)

                                   compound  recordedendpoint  testvalue
0  O=C1CC[C@H](N2Cc3cc(C(=O)N[C@H](c4ncccc4Cl)C(F)(F)F)ccc3C2=O)C(=O)N1 [Compound 1]              Cmax       21.5
